// provenance: patent US12715858B2

Experiment: Solubility in water and bio-relevant media at 37° C. (HPLC of filtrate, pH of filtrate, XRPD of filter cake)
Assay type: physicochemical
Conditions: pH of the filtrate, FeSSIF, 24 h
observable: PH 24 h

Worked set:
* Cc1nn(-c2cc(Cl)c(Oc3cc(C(C)C)c(=O)[nH]n3)c(Cl)c2)c(=O)[n-]c1=O.[K+] [Potassium salt Form 2] | 5.17
* Cc1nn(-c2cc(Cl)c(Oc3cc(C(C)C)c(=O)[nH]n3)c(Cl)c2)c(=O)[n-]c1=O.[Na+] [Sodium salt Form A] | 5.26
* Cc1nn(-c2cc(Cl)c(Oc3cc(C(C)C)c(=O)[nH]n3)c(Cl)c2)c(=O)[nH]c1=O [Free acid Form I] | 5.00

Kindly consider the entry below.
Short answer for Cc1nn(-c2cc(Cl)c(Oc3cc(C(C)C)c(=O)[nH]n3)c(Cl)c2)c(=O)[n-]c1=O.[K+] [Potassium salt Form 1] : PH 24 h was 5.24

====

Assay: Solubility in water and bio-relevant media at 37° C. (HPLC of filtrate, pH of filtrate, XRPD of filter cake)
Type: physicochemical
Details: water, 37 °C, water, thermodynamic from solid, Water, 37° C., 2 h; LOQ is 0.5 μg/mL; read-out: Solubility (mg/mL) 2 h
observable: solubility at 2 h (mg/mL)
Write down the numeric answer in mg/mL and omit the unit.

• Cc1nn(-c2cc(Cl)c(Oc3cc(C(C)C)c(=O)[nH]n3)c(Cl)c2)c(=O)[n-]c1=O.[Na+] [Sodium salt Form A] = 3.51

Could you now look at the following compound, please?
Form field solubility at 2 h, entry Cc1nn(-c2cc(Cl)c(Oc3cc(C(C)C)c(=O)[nH]n3)c(Cl)c2)c(=O)[n-]c1=O.[K+] [Potassium salt Form 1] : 5.28

====

Assay: Solubility in water and bio-relevant media at 37° C. (HPLC of filtrate, pH of filtrate, XRPD of filter cake)
Format: physicochemical
Settings: filter cake obtained at 2 or 24 hours, SGF
observable: XRPD

* Cc1nn(-c2cc(Cl)c(Oc3cc(C(C)C)c(=O)[nH]n3)c(Cl)c2)c(=O)[n-]c1=O.[K+] [Potassium salt Form 1] | Free acid
* Cc1nn(-c2cc(Cl)c(Oc3cc(C(C)C)c(=O)[nH]n3)c(Cl)c2)c(=O)[n-]c1=O.[Na+] [Sodium salt Form A] | Free acid
* Cc1nn(-c2cc(Cl)c(Oc3cc(C(C)C)c(=O)[nH]n3)c(Cl)c2)c(=O)[n-]c1=O.[K+] [Potassium salt Form 2] | Free acid

====

Assay: Solubility in water and bio-relevant media at 37° C. (HPLC of filtrate, pH of filtrate, XRPD of filter cake)
Format: physicochemical
Conditions: thermodynamic from solid; FeSSIF, 37° C., 0.5 h; read-out: Solubility (mg/mL) 0.5 h
Method: Solubility of Form I of free acid, Form 1 and Form 2 of potassium salt, and Form A of sodium salt were tested in water and in bio-relevant media of Simulated Intestinal Fluid (SIF), Simulated Gastric Fluid (SGF), Fasted State Simulated Intestinal Fluid (FaSSIF), and Fed State Simulated Intestinal Fluid (FeSSIF) at 37° C. up to 24 hours. About 12 mg of the sample was weighed into sample vials and then 1.5 mL of each media was added to make suspensions respectively. […]
observable: solubility at 0.5 h (mg/mL)
Just the number please, in mg/mL, no unit attached.

The molecule identified as Cc1nn(-c2cc(Cl)c(Oc3cc(C(C)C)c(=O)[nH]n3)c(Cl)c2)c(=O)[nH]c1=O [Free acid Form I] registered its solubility at 0.5 h at 0.00056
